- Tested on: sGC (Rattus norvegicus, UniProt P20595)
- Construct: Rat primary neurons were isolated from timed-pregnant female Sprague-Dawley (SD) rats; endogenous in cells
- Assay details: cGMP measurement in rat primary neurons (neuronal-based cell assay)
- Study conditions: rat primary neurons (Sprague-Dawley); 0.5 mM IBMX; test compound with fixed DETA (Diethylenetriamine NONOate); 20 min at 37° C.; cGMP by CatchPoint kit; read-out: sGC Neuron EC50
Measure: EC50

compound="Cc1cc(F)c(Cc2nc(-c3nc(O)c(F)c(CF)n3)cn3ncnc23)cc1F [Compound I-5]" test_value="1 to 5 µM"
compound="Cc1cc(F)c(Cc2nc(-c3ncc(C(C)O)c(O)n3)cn3ccnc23)cc1F (stereo not shown) [Compound I-28]" test_value="0.1 to 1 µM"
compound="Cc1cnc2c(Cc3cc(F)c(Cl)cc3F)nc(-c3nc(O)c(F)c(O)n3)cn12 [Compound I-6]" test_value="> 5 µM"
compound="Cc1cc(F)c(Cc2nc(-c3nc(O)cc(CCO)n3)cn3ccnc23)cc1F [Compound I-26]" test_value="> 5 µM"

====

- Tested on: sGC (Rattus norvegicus)
- Construct: Rat primary neurons were isolated from timed-pregnant female Sprague-Dawley (SD) rats; endogenous in cells
- Sequence (P20595 1-619): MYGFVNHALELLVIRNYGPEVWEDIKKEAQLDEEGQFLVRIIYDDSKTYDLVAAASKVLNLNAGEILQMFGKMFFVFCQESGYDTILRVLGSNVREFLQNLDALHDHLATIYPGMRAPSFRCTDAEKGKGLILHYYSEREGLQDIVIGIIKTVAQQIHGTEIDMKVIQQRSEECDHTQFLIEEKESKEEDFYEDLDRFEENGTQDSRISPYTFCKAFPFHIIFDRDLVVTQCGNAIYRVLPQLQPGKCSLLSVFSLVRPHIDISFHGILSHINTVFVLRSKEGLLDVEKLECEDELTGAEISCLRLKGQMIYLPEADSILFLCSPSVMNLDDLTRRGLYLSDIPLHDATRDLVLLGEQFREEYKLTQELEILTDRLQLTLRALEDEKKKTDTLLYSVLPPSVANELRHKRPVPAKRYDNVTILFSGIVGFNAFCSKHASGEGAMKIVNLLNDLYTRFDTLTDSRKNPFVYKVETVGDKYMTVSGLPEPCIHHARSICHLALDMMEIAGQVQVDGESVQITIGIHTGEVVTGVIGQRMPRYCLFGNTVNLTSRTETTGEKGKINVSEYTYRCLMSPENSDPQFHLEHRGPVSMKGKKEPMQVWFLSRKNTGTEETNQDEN
- Sequence (P19686 1-690 partner): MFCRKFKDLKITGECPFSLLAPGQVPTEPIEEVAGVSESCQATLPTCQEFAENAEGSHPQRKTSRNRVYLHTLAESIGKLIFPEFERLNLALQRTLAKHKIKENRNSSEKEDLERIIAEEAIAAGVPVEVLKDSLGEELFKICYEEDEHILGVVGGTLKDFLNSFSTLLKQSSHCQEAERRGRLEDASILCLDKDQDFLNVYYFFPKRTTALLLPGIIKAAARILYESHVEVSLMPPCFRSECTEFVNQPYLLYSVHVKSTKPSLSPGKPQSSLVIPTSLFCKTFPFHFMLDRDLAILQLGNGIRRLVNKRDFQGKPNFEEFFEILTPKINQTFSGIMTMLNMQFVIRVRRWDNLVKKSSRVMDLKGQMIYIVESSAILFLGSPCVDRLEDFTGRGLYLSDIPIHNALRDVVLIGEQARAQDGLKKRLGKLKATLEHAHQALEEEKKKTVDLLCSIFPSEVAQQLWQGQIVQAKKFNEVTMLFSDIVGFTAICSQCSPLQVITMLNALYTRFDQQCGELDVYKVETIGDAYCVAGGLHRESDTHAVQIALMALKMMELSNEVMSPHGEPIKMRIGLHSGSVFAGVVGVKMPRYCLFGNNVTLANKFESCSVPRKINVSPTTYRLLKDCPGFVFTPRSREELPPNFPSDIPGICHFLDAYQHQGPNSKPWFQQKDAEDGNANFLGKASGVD
- Assay details: cGMP measurement in rat primary neurons (neuronal-based cell assay)
- Study conditions: rat primary neurons (Sprague-Dawley); 0.5 mM IBMX; test compound with fixed DETA (Diethylenetriamine NONOate); 20 min at 37° C.; cGMP by CatchPoint kit; read-out: sGC Neuron EC50
- Protocol: Example 2: cGMP Measurement in Rat Primary Neurons Rat primary neurons were isolated from timed-pregnant female Sprague-Dawley (SD) rats, washed once with HBSS with calcium and magnesium and incubated with a solution containing 0.5 mM 3-isobutyl-1-methylxanthine (IBMX) in HBSS (80 μL/well) at 37° C. for 15 min. […] CatchPoint™ Cyclic-GMP Fluorescent Assay Kit was used with Molecular Devices' ID3 multi-mode plate reading. […]
Catalogue of EC50 values
Measure: EC50

structure_as_smiles=COc1cnc2c(Cc3cc(F)c(C#N)cc3C)nc(-c3ncc(F)c(O)n3)cn12 test_value="> 5 µM"
structure_as_smiles=COc1c(O)nc(-c2cn3ccnc3c(Cc3cc(F)c(C)cc3F)n2)nc1CF test_value="0.1 to 1 µM"
structure_as_smiles=COc1cnc2c(Cc3cc(F)c(C)cc3F)nc(-c3ncc(C)c(O)n3)cn12 test_value="> 5 µM"
